target.system: IRAK4 (Homo sapiens)
Construct: endogenous in cells; host or cells: Karpas299
Sequence (Q9NWZ3 1-460): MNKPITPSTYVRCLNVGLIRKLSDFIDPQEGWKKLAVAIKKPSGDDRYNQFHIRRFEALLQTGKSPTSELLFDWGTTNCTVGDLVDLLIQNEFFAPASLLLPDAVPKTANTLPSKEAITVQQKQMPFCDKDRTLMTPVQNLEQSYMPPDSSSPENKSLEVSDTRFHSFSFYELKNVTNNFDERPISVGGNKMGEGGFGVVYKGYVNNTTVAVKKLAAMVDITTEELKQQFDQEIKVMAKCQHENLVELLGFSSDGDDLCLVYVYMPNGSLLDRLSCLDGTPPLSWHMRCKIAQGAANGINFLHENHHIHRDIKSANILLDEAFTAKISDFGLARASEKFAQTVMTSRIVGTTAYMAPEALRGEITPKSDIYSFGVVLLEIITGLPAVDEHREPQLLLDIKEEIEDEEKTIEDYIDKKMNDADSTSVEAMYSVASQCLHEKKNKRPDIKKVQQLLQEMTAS
protocol.details: IRAK4 Degradation Assay (Karpas299, HTRF/TR-FRET)
Format: cell-based
recorded.conditions: Karpas-299 cells, 24 h treatment; maximum percentage of degradation; read-out: IRAK4 in Karpas-299 (24 h) Dmax (%)
Entries annotated with measured Dmax
Answer with a number only, understood to be in %.

Take a look at these entries with their results.
The recorded Dmax for entry NC(=O)c1nn([C@H]2CC[C@H](N3CCN(C(=O)C4CN(c5ccc(N6CCC(=O)NC6=O)cc5)C4)CC3)CC2)cc1NC(=O)c1coc(-c2ccnc(NCC(F)(F)F)c2)n1 equals 97

The recorded Dmax for entry N#Cc1cnn2c(C(=O)Nc3cc4cn([C@H]5CC[C@H](N6CCN(C7CN(c8cc(F)c([C@H]9CCC(=O)NC9=O)c(F)c8)C7)CC6)CC5)nc4c4c3OC(F)(F)O4)ccc2c1 equals 91

The recorded Dmax for entry O=C1CC[C@H](c2c(F)cc(N3CCC(CN4CCN([C@H]5CC[C@H](n6cc(NC(=O)c7coc(-c8ccnc(NCC(F)(F)F)c8)n7)c(C(F)F)n6)CC5)CC4)CC3)cc2F)C(=O)N1 equals 97

Continuing:
The recorded Dmax for entry COc1cc2nn([C@H]3CC[C@H](CN4CCN(C(=O)[C@@H]5CCN(c6cc(F)c(N7CCC(=O)NC7=O)c(F)c6)C5)CC4)CC3)cc2cc1NC(=O)c1cccn(C2CC2)c1=O equals 95

The recorded Dmax for entry COc1cc2nn([C@H]3CC[C@H](N4CCN(CCc5cc(F)c([C@H]6CCC(=O)NC6=O)c(F)c5)CC4)CC3)cc2cc1NC(=O)c1cccc(C(F)(F)F)n1 equals 99

The recorded Dmax for entry CC(C)(O)c1cc2nn(C3CCN(C4CCN(C(=O)C5CN(c6cc(F)c([C@H]7CCC(=O)NC7=O)c(F)c6)C5)CC4)CC3)cc2cc1NC(=O)c1ccc2cc(C#N)cnn12 equals 97

The recorded Dmax for entry O=C1CC[C@H](c2c(F)cc(N3CC(C(=O)N4CCN([C@H]5CC[C@H](n6cc7cc(NC(=O)c8cccc(C(F)(F)F)n8)c(C(=O)NC8CC8)cc7n6)CC5)CC4)C3)cc2F)C(=O)N1 equals 98

The recorded Dmax for entry COC[C@@H]1CN(C(=O)C2CN(c3cc(F)c([C@H]4CCC(=O)NC4=O)c(F)c3)C2)CCN1[C@H]1CC[C@H](n2cc3cc(NC(=O)c4ccc5cc(C#N)cnn45)c(C(C)(C)O)cc3n2)CC1 equals 98

The recorded Dmax for entry COc1cc2nn([C@H]3CC[C@H](CN4CCN(C(=O)C5CCN(c6ccc(N7CCC(=O)NC7=O)cc6)CC5)CC4)CC3)cc2cc1NC(=O)c1cccc(C(F)(F)F)n1 equals 66

The recorded Dmax for entry O=C1CC[C@H](c2c(F)cc(N3CC(CN4CCN([C@H]5CC[C@H](n6cc(NC(=O)c7coc(-c8ccnc(NCC9CC9)c8)n7)c(C(F)F)n6)CC5)CC4)C3)cc2F)C(=O)N1 equals 99

The recorded Dmax for entry CC(C)(O)c1cc2nc(C3CCN(C4CN(C(=O)[C@@H]5CCN(c6cc(F)c([C@H]7CCC(=O)NC7=O)c(F)c6)C5)C4)CC3)cn2cc1NC(=O)c1cccc(C(F)(F)F)n1 equals 94

The recorded Dmax for entry O=C1CC[C@H](c2c(F)cc(N3CC(CN4CCN([C@H]5CC[C@H](n6cc(NC(=O)c7csc(-c8cn[nH]c8)n7)c(C(F)F)n6)CC5)CC4)C3)cc2F)C(=O)N1 equals 100

The recorded Dmax for entry CC(C)(O)c1cc2nn([C@H]3CC[C@H](N4CCN(C(=O)[C@@H]5CCN(c6cc(F)c([C@H]7CCC(=O)NC7=O)c(F)c6)C5)CC4)CC3)cc2cc1NC(=O)c1cccc(C(F)(F)F)n1 equals 99

The recorded Dmax for entry COc1cc2nn([C@H]3CC[C@H](CN4CCN(C(=O)C5CN(c6ccc(N7CCC(=O)NC7=O)cc6)C5)CC4)CC3)cc2cc1NC(=O)c1cccc(C(F)(F)F)n1 equals 92

The recorded Dmax for entry CC(C)(O)c1cc2nn([C@H]3CC[C@H](N4CCN(C5CN(c6cc(F)c([C@H]7CCC(=O)NC7=O)c(F)c6)C5)CC4=O)CC3)cc2cc1NC(=O)c1ccc2cc(C#N)cnn12 equals 93

The recorded Dmax for entry C[C@H]1CN(CCc2cc(F)c([C@H]3CCC(=O)NC3=O)c(F)c2)CCN1[C@H]1CC[C@H](n2cc3cc(NC(=O)c4ccc5cc(C#N)cnn45)c(C(C)(C)O)cc3n2)CC1 equals 96

The recorded Dmax for entry NC(=O)c1nn([C@H]2CC[C@H](N3CCN(C(=O)[C@@H]4CCN(c5cc(F)c([C@H]6CCC(=O)NC6=O)c(F)c5)C4)CC3)CC2)cc1NC(=O)c1coc(-c2ccnc(NCC(F)(F)F)c2)n1 equals 98

The recorded Dmax for entry CC(C)(O)c1cc2nn([C@H]3CC[C@H](N4CCN(CCc5cc(F)c([C@H]6CCC(=O)NC6=O)c(F)c5)CC4=O)CC3)cc2cc1NC(=O)c1ccc2cc(C#N)cnn12 equals 95

The recorded Dmax for entry COc1cc2nn([C@H]3CC[C@H](N4CCN(C(=O)C5CN(c6cc(F)c([C@H]7CCC(=O)NC7=O)c(F)c6)C5)CC4)CC3)cc2cc1NC(=O)c1ccc2cc(C#N)cnn12 equals 100

The recorded Dmax for entry CC(C)(O)c1cc2nn([C@H]3C[C@H](N4CCN(C(=O)C5CN(c6cc(F)c([C@H]7CCC(=O)NC7=O)c(F)c6)C5)CC4)C3)cc2cc1NC(=O)c1ccc2cc(C#N)cnn12 equals 96
